- Tested on: MCF7
- procedureDetails: Cytotoxicity against human MCF7 cells assessed as growth inhibition after 72 hrs by MTT assay
- Assay type: functional, cell-based
- experimentalSetup: MCF7, 72 h
Flag rule - IC50 less than 40 µM flags yes; the remaining entries get no.

Inquiry: Strictly below 40 µM in IC50? CC(C)(C)OC(=O)N1CCN(C(=S)SCc2cn(Cc3ccccc3Cl)nn2)CC1
Reply text: yes

Inquiry: Strictly below 40 µM in IC50? Cc1ccc(Cn2cc(CSC(=S)N3CCN(C(=O)OCc4ccccc4)CC3)nn2)cc1
Reply text: yes

Inquiry: Strictly below 40 µM in IC50? Cc1cc(=O)oc2cc(OCCn3cc(CSC(=S)N4CCN(C(=O)OC(C)(C)C)CC4)nn3)ccc12
Reply text: no

Inquiry: Strictly below 40 µM in IC50? Fc1ccc(Cn2cc(CSC(=S)N3CCNCC3)nn2)cc1
Reply text: no

Inquiry: Strictly below 40 µM in IC50? COc1cc(Cn2cc(CSC(=S)N3CCN(C(=O)OCc4ccccc4)CC3)nn2)cc(OC)c1OC
Reply text: no

Inquiry: Strictly below 40 µM in IC50? CC(C)(C)OC(=O)N1CCN(C(=S)SCc2cn(-c3cccc(C(F)(F)F)c3)nn2)CC1
Reply text: no

Inquiry: Strictly below 40 µM in IC50? CC(C)(C)OC(=O)N1CCN(C(=S)SCc2cn(Cc3ccccc3F)nn2)CC1
Reply text: yes

Inquiry: Strictly below 40 µM in IC50? O=C(OCc1ccccc1)N1CCN(C(=S)SCc2cn(Cc3ccc(Cl)c(Cl)c3)nn2)CC1
Reply text: yes

Inquiry: Strictly below 40 µM in IC50? COc1ccc(Cn2cc(CSC(=S)N3CCN(C(=O)OCc4ccccc4)CC3)nn2)cc1
Reply text: yes

---

Exercise: state measured IC50 for each of the molecules provided.
- Tested on: MCF7
- procedureDetails: Cytotoxicity against human MCF7 cells assessed as growth inhibition after 72 hrs by MTT assay
- Type: functional, cell-based
- experimentalSetup: MCF7, 72 h
The figure you give is taken to be in µM; do not add the unit.

Field IC50 (entry CC(C)(C)OC(=O)N1CCN(C(=S)SCc2cn(Cc3ccc(F)cc3)nn2)CC1 ) reads 3.34

Field IC50 (entry Cc1ccc(Cn2cc(CSC(=S)N3CCNCC3)nn2)cc1 ) reads 53.2

Field IC50 (entry COc1ccc(-n2cc(CSC(=S)N3CCN(C(=O)OC(C)(C)C)CC3)nn2)cc1 ) reads 93

Field IC50 (entry O=C(OCc1ccccc1)N1CCN(C(=S)SCc2cn(Cc3ccc(F)cc3)nn2)CC1 ) reads 10.3

Field IC50 (entry Fc1ccccc1Cn1cc(CSC(=S)N2CCNCC2)nn1 ) reads 33.2

Field IC50 (entry CC(C)(C)OC(=O)N1CCN(C(=S)SCc2cn(Cc3ccc(Cl)cc3)nn2)CC1 ) reads 2.96

Field IC50 (entry O=C(OCc1ccccc1)N1CCN(C(=S)SCc2cn(Cc3ccc(Cl)cc3)nn2)CC1 ) reads 27.5

Field IC50 (entry O=C(OCc1ccccc1)N1CCN(C(=S)SCc2cn(Cc3ccccc3Cl)nn2)CC1 ) reads 21.4

Field IC50 (entry COc1ccc(Cn2cc(CSC(=S)N3CCN(C(=O)OC(C)(C)C)CC3)nn2)cc1 ) reads 4.96
